As shown below, each of these molecules has a reported MIC value.
# Tested on: Xanthomonas oryzae
# assay.summary: Antibacterial activity against Xanthomonas oryzae after 24 hrs by microdilution method
# Assay type: functional
Numbered stars: 1 amine (or outer) side, 2 acyl side, 3 side chain; on linkers, the order of the positions; unused ones are H or OH. Peptide text beside a SMILES is read from it. * marks the point of attachment. Piperazinyl(4-(2,3-Cl2Ph)) = Clc1cccc(N2CCN(*)CC2)c1Cl; Thiocarbamoyl(N-4-ClPh) = S=C(Nc1ccc(Cl)cc1)*; Thiocarbamoyl(N-2-FPh) = Fc1ccccc1NC(=S)*; NH(4-Cl-phenyl) = Clc1ccc(N*)cc1; X1 = Fc1ccc2c(C3CCN(*)CC3)noc2c1; NH(2-F-phenyl) = Fc1ccccc1N*; CO = O=C([*:1])[*:2]
readout.name: MIC

>>> result("O=C(CNC(=O)Nc1ccccc1F)NCC(=O)N[C@@H](Cc1ccccc1)C(=O)N1CCC[C@H]1C(=O)N1CCC(c2noc3cc(F)ccc23)CC1 ({NH(2-F-phenyl)-CO}-GGFP-X1)")
"9 µg/mL"
>>> result("CC(C)[C@H](NC(=O)CNC(=S)Nc1ccccc1F)C(=O)NCC(=O)N[C@H](C(=O)N1CCC[C@H]1C(=O)N1CCC(c2noc3cc(F)ccc23)CC1)C(C)C ({Thiocarbamoyl(N-2-FPh)}-GVGVP-X1)")
"6.25 µg/mL"
>>> result("CC1(C)S[C@@H]2[C@H](NC(=O)[C@H](N)c3ccc(O)cc3)C(=O)N2[C@H]1C(=O)O [AMOXICILLIN]")
"19 µg/mL"
>>> result("CC[C@H](C)[C@H](NC(=O)CNC(=O)CNC(=O)Nc1ccccc1F)C(=O)N1CCC[C@H]1C(=O)N1CCN(c2cccc(Cl)c2Cl)CC1 ({NH(2-F-phenyl)-CO}-GGIP-{Piperazinyl(4-(2,3-Cl2Ph))})")
"10 µg/mL"
>>> result("O=C(CNC(=S)Nc1ccc(Cl)cc1)N[C@@H](Cc1ccccc1)C(=O)NCC(=O)N[C@@H](Cc1ccccc1)C(=O)N1CCC[C@H]1C(=O)N1CCN(c2cccc(Cl)c2Cl)CC1 ({Thiocarbamoyl(N-4-ClPh)}-GFGFP-{Piperazinyl(4-(2,3-Cl2Ph))})")
"6.75 µg/mL"
>>> result("O=C(CNC(=O)Nc1ccc(Cl)cc1)N[C@@H](Cc1ccccc1)C(=O)NCC(=O)N[C@@H](Cc1ccccc1)C(=O)N1CCC[C@H]1C(=O)N1CCC(c2noc3cc(F)ccc23)CC1 ({NH(4-Cl-phenyl)-CO}-GFGFP-X1)")
"6.5 µg/mL"
>>> result("CC(C)[C@H](NC(=O)CNC(=O)Nc1ccc(Cl)cc1)C(=O)NCC(=O)N[C@H](C(=O)N1CCC[C@H]1C(=O)N1CCC(c2noc3cc(F)ccc23)CC1)C(C)C ({NH(4-Cl-phenyl)-CO}-GVGVP-X1)")
"8.5 µg/mL"

* * *

As shown below, each of these compounds has a reported MIC value.
# System: Xanthomonas oryzae
# assay.summary: Antibacterial activity against Xanthomonas oryzae after 24 hrs by microdilution method
# Type: functional
Numbered stars: 1 amine (or outer) side, 2 acyl side, 3 side chain; on linkers, the order of the positions; unused ones are H or OH. Peptide text beside a SMILES is read from it. * marks the point of attachment. Piperazinyl(4-(2,3-Cl2Ph)) = Clc1cccc(N2CCN(*)CC2)c1Cl; Thiocarbamoyl(N-4-ClPh) = S=C(Nc1ccc(Cl)cc1)*; Thiocarbamoyl(N-2-FPh) = Fc1ccccc1NC(=S)*; X1 = Fc1ccc2c(C3CCN(*)CC3)noc2c1; NH(2-F-phenyl) = Fc1ccccc1N*; CO = O=C([*:1])[*:2]
readout.name: MIC (µg/mL)

>>> numeric_result("O=C(CNC(=S)Nc1ccccc1F)N[C@@H](Cc1ccccc1)C(=O)NCC(=O)N[C@@H](Cc1ccccc1)C(=O)N1CCC[C@H]1C(=O)N1CCC(c2noc3cc(F)ccc23)CC1 ({Thiocarbamoyl(N-2-FPh)}-GFGFP-X1)")
4.75
>>> numeric_result("CC(C)[C@H](NC(=O)CNC(=S)Nc1ccc(Cl)cc1)C(=O)NCC(=O)N[C@H](C(=O)N1CCC[C@H]1C(=O)N1CCN(c2cccc(Cl)c2Cl)CC1)C(C)C ({Thiocarbamoyl(N-4-ClPh)}-GVGVP-{Piperazinyl(4-(2,3-Cl2Ph))})")
8.75
>>> numeric_result("CC(C)[C@H](NC(=O)CNC(=O)Nc1ccccc1F)C(=O)NCC(=O)N[C@H](C(=O)N1CCC[C@H]1C(=O)N1CCN(c2cccc(Cl)c2Cl)CC1)C(C)C ({NH(2-F-phenyl)-CO}-GVGVP-{Piperazinyl(4-(2,3-Cl2Ph))})")
7.25
>>> numeric_result("CC(C)[C@H](NC(=O)CNC(=O)Nc1ccccc1F)C(=O)NCC(=O)N[C@H](C(=O)N1CCC[C@H]1C(=O)N1CCC(c2noc3cc(F)ccc23)CC1)C(C)C ({NH(2-F-phenyl)-CO}-GVGVP-X1)")
6.75

Source listed as ChEMBL document CHEMBL1932971.
